# Test system: A498
# Assay name: NCI tumour cell line growth inhibition, 48 h
Calls of active or inactive are those of the source. No stated cut-off is given here; in the data, active = GI50 up to about 1.1 µM and inactive = higher.
Each entry below carries its reported GI50.

Q: Request the reported GI50 associated with "COc1ccc(/C=C/C(=O)c2c(-c3ccccc3)nn(C)c(=O)c2N2CCCC2)cc1"
Ans: > 100 µM (inactive)

Q: // GI50 lookup, key: "O=C/C=C/c1ccco1"
Ans: > 100 µM (inactive)

Q: Look up GI50 for this molecule: "Cn1c2ccccc2c2[nH]cc3nc4ccccc4c-3c21"
Ans: 18.7 µM (inactive)

Q: # input molecule: "Cc1ccc(Cl)cc1/N=N/C(=O)NNc1cc(Cl)ccc1C" ; wanted: its GI50
Ans: 20.3 µM (inactive)

Q: Can you look up the measured GI50 of "N#CC(C#N)=C(N)/C(C#N)=C/c1ccc(O)c(O)c1" for me?
Ans: > 100 µM (inactive)

Further cases:
Q: Field request: GI50 | item: "Cc1ccc(/N=N/NCCCCN/N=N/c2ccc(C)cc2)cc1"
Ans: 54.6 µM (inactive)

Q: Quick one: GI50 of "COc1cc2oc(=O)cc(C)c2cc1OC" ?
Ans: 40.2 µM (inactive)

Q: Entry under review: "O=C1c2ccccc2C(=O)N1CCCSc1ccccc1" . Reported GI50?
Ans: 33 µM (inactive)

Q: Item under review: COc1cc2c(cc1OC)CC(N=[N+]=[N-])c1cc(OC)c(OC)cc1/C=C\2 (configuration not stated) . Reported GI50?
Ans: > 100 µM (inactive)

Q: Which GI50 value belongs to CC(CO)CCNc1ncnc2c1ncn2CCC#N (configuration not stated) ?
Ans: > 100 µM (inactive)

Q: Recorded GI50 of O=C1CCCCC1CN1CCCCC1 (configuration not stated) , please.
Ans: > 100 µM (inactive)

Q: Please look up its GI50: "CCc1cccc(C(C)C)c1NC1=C([n+]2ccc(C)cc2)C(=O)c2ccccc2C1=O.[O-][Cl+3]([O-])([O-])[O-]"
Ans: 2.75 µM (inactive)

Q: Entry under review: "C/C(Sc1ccccc1)=C1/CCCN(Cc2ccccc2)C1" . Reported GI50?
Ans: 37.8 µM (inactive)

Q: What does the record list as GI50 for CCCC(O)[C@@H](O)c1ccc2c(c1O)C(=O)c1c(OC)cccc1C2=O (some centres not stated) ?
Ans: 34.5 µM (inactive)

Q: Given the entry "Nc1ccc(C(=O)N/C(=C\c2ccc3c(c2)OCO3)c2nc3ccc4c(c3[nH]2)C(=O)c2ccccc2C4=O)cc1" , report its measured GI50.
Ans: 14.4 µM (inactive)

Q: // query GI50 value for entry "Cn1c(-c2ccc(C=O)o2)ccc1-c1ccc(C=O)o1"
Ans: > 100 µM (inactive)

Q: Requested field: GI50. Item: "COc1ccc2nc3ccc(OC)cc3c(S(=O)(=O)Cc3ccc([N+](=O)[O-])cc3)c2c1"
Ans: > 100 µM (inactive)

* * *

# Test system: MCF7
# Assay name: NCI tumour cell line growth inhibition, 48 h
The source made the active and inactive calls. Cut-off read from the data, not from the text of the source: active = GI50 up to about 1.1 µM and inactive = higher.
The following compounds are shown together with reported GI50 values.

Example entries begin here.
Q: Under MCF7: GI50 value of "COC(c1ccc(C(C)(C)C)cc1)(c1ccc(C(C)(C)C)cc1)c1cc(C(O)(c2cc(C(OC)(c3ccc(C(C)(C)C)cc3)c3ccc(C(C)(C)C)cc3)c(C)cc2C)c2cc(C(OC)(c3ccc(C(C)(C)C)cc3)c3ccc(C(C)(C)C)cc3)c(C)cc2C)c(C)cc1C" ?
Ans: > 100 µM (inactive)

Q: Provide the documented GI50 with MCF7 as the system for "Cc1cc(O)cc2c1c(=O)c1ccccc1n2C"
Ans: > 100 µM (inactive)

Q: What measured GI50 is associated with "Cc1cccc(N/C(=C(/C(Cl)=C(Cl)Cl)[N+](=O)[O-])n2nnc3ccccc32)c1" on MCF7?
Ans: 21.6 µM (inactive)

Q: Provide the documented GI50 with MCF7 as the system for CC1OC(OC2C(CO)OC(O[C@H]3CC[C@@]4(C)C(=CC[C@H]5[C@@H]6C[C@@H]7O[C@](O)(CC[C@H](CO)COC8OC(CO)C(O)C(O)C8O)[C@@H](C)[C@@H]7[C@@]6(C)CC[C@@H]54)C3)C(OC3OC(C)C(O)C(O)C3O)C2O)C(O)C(O)C1O (some centres not stated)
Ans: > 100 µM (inactive)

Q: Query for MCF7: what GI50 does the record show for "Cc1cc(C)c2c(=O)n(CN3CCC(C#N)(c4ccccc4)CC3)sc2n1" ?
Ans: 62.5 µM (inactive)

Further cases:
Q: Query GI50 on MCF7 for CCCCCCCCCCCCCCCCCCN(C)CC(COC)OP(=O)([O-])OCC[N+](C)(C)C (configuration not stated)
Ans: 3.97 µM (inactive)

Q: For MCF7, provide GI50 of O=C(O)c1ccccn1 [2-PICOLINIC ACID] please.
Ans: > 100 µM (inactive)
